B1: CPEB3 Ribozyme (parent)
chain: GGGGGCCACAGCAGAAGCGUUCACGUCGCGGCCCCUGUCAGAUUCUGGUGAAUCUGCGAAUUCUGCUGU

Variants of: B1
experiment_summary: self-cleavage, relative activity (ratio to wild type); higher = more cleavage; co-transcriptional
test_readout: self-cleavage
Field format: numeric only.

>>> quantitative_result("GGGGGCCACAGCAGAUGCGUUCACGUCGCGGCCCCUGUCAGAUUCUGGUGAAUCUGCGAAUUCUGCUAU [A16U G68A]")
0.953

What value of self-cleavage has been recorded for this entry: GGGGGCCACAGCGGAAGCGUUCACGUCGCGGCCCCUGUCAGAUUCUGGUGAAUCAGCGAAUUCUGCUGU [A13G U55A]
0.722

Entry to check: AGGGGCCACAGCAGAAGCGUUCACGUCGCGGCCCCUGUCGGAUUCUGGUGAAUCUGCGAAUUCUGCUGU [G1A A40G]
0.0657
